target: tyrosinase (Agaricus bisporus, UniProt C7FF04); construct: purchased Sigma-Aldrich; assay: Tyrosinase inhibition assay; format: biochemical; settings: read-out: IC50 against tyrosinase
Sequence (C7FF04 1-392 limits assumed): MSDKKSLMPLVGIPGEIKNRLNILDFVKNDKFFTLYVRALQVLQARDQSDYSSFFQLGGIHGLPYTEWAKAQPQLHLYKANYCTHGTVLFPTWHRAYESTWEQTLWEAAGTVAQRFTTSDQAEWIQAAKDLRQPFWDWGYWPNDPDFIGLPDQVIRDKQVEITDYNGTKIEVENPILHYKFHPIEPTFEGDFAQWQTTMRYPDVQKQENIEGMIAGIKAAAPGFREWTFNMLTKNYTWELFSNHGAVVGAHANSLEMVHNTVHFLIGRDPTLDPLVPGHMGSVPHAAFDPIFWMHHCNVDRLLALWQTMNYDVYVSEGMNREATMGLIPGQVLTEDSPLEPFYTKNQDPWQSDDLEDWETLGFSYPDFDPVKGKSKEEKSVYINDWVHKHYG
metric: IC50 (µM)
Return type: number; implicit unit µM.

Consider the compound shown here: COc1cccc(C(=O)OC/C=C(\C)CCC[C@H](C)CCC[C@H](C)CCCC(C)C)c1 [Compound 1c, Phytyl 3-methoxybenzoate] What is its recorded IC50?
79

Which value of IC50 has been reported for COc1ccccc1C(=O)OC/C=C(\C)CCC[C@H](C)CCC[C@H](C)CCCC(C)C [Compound 1b, Phytyl 2-methoxybenzoate] in the records?
59.6

---

I'd be grateful if you could share measured fold increase in collagenase inhibition over phytol for these entries.
tested on: collagenase; assay: Collagenase inhibition assay; assay type: biochemical; conditions: 100 µM; compared to phytol
Number in fold, nothing else.

Need fold increase in collagenase inhibition over phytol of COc1cccc(C(=O)OC/C=C(\C)CCC[C@H](C)CCC[C@H](C)CCCC(C)C)c1 [Compound 1c, Phytyl 3-methoxybenzoate] , thanks.
1.42

# input compound: COc1ccc(C(=O)OC/C=C(\C)CCC[C@H](C)CCC[C@H](C)CCCC(C)C)cc1 [Compound 1d, Phytyl 4-methoxybenzoate] ; wanted: its fold increase in collagenase inhibition over phytol
1.56

Which value of fold increase in collagenase inhibition over phytol has been reported for C/C(=C\COC(=O)c1cccs1)CCC[C@H](C)CCC[C@H](C)CCCC(C)C [Compound 1i, Phytyl 2-thiophenecarbonoate] in the records?
1.28

Field request: fold increase in collagenase inhibition over phytol | item: C/C(=C\COC(=O)c1ccc(Cl)cc1)CCC[C@H](C)CCC[C@H](C)CCCC(C)C [Compound 1e, Phytyl 4-chlorobenzoate]
1.38

Need fold increase in collagenase inhibition over phytol, item C/C(=C\COC(=O)C=Cc1ccc([N+](=O)[O-])cc1)CCC[C@H](C)CCC[C@H](C)CCCC(C)C [Compound 1g, Phytyl 4-nitrocinnamoate]
1.28

The measured values listed here are drawn from paper PMC11510177.
